The measurements presented in this section are drawn from paper PMC10005301.

- settings: pH 10.0; calculated with literature logP, pKa and pH, Equation (S3)
# cutoff 2 applies to logDpH 10.0; >= gives criterion met, < gives criterion not met

> print(dat)
                                  compound           category
1    CC(C)c1ccc(N)cc1 [4-Isopropylaniline]      criterion met
2  Cc1ccnc(N)c1 [2-Amino-4-methylpyridine]  criterion not met
3           Nc1ccc(F)cc1 [4-Fluoroaniline]  criterion not met

Quick check, logDpH 10.0 >= 2? Cc1ccnc(C)c1 [2,4-Dimethylpyridine]
criterion not met

###

- test_method_notes: logD determined by multi-parameter QSRR models from IS-RPLC logkw
- settings: IS-RPLC retention (logkw), pH 9
Simple rule here: chromatographic logD less than 0.9 is Criterion met, otherwise Criterion not met.

> print(dat)
                                   molecule           category
1           Cc1c[nH]cn1 [4-Methylimidazole]      Criterion met
2  CCC(C(N)=O)N1CCCC1=O (centres unmarked) [Etiracetam]      Criterion met
3              Nc1ccc(I)cc1 [4-Iodoaniline]  Criterion not met
4  O=C(n1ccnc1)n1ccnc1 [1,1’-Carbonyldiimidazole]      Criterion met
5            Nc1ccc(Br)cc1 [4-Bromoaniline]  Criterion not met

Lab log: compare recorded chromatographic logD with 0.9; is it strictly lower for COc1nc(C)nc(N)n1 [2-Amino-4-methyl-6-methoxy-s-triazine] ?
Criterion not met

Identify whether the molecule CCc1ccccn1 [2-Ethylpyridine] records chromatographic logD below 0.9.
Criterion not met

Does the reported chromatographic logD of O=C(O)c1cc(O)nc(O)c1 [Citrazinic acid] stay below 0.9?
Criterion not met

###

- test_method_notes: IS-RPLC retention on silica-based C18 column, logkw by linear solvent strength model
- Type: physicochemical
- settings: pH 10.0; methanol/20 mmol/L ammonium phosphate buffer, Welch Xtimate C18, 30 °C; 100% aqueous extrapolation
Consider the following molecules and their measured logkw-pH 10.0 readings.

> print(dat)
   smiles.input  observed
1  Nc1cccc(N)c1      0.21

Now look at this entry.
Please give measured logkw-pH 10.0 of the following entry: `Nc1ccccc1`
1.02

###

Documented logkw-pH 10.0 across a set of compounds
- test_method_notes: IS-RPLC retention on silica-based C18 column, logkw by linear solvent strength model
- Type: physicochemical
- settings: pH 10.0; methanol/20 mmol/L ammonium phosphate buffer, Welch Xtimate C18, 30 °C; 100% aqueous extrapolation

> print(dat)
                compound        measure  observed
1  c1ccc(CNCc2ccccc2)cc1  logkw-pH 10.0      4.54
2         CN(C)Cc1ccccc1  logkw-pH 10.0      2.44
3        Cc1cc(C)nc(C)c1  logkw-pH 10.0      2.34

Read off the recorded logkw-pH 10.0 for `Nc1ccc([N+](=O)[O-])cc1[N+](=O)[O-]`
1.92

Supply measured logkw-pH 10.0 of `c1c[nH]cn1` in your reply.
−0.16

Identify measured logkw-pH 10.0 associated with `O=C(n1ccnc1)n1ccnc1`
−0.15

###

- settings: pH 8.0; calculated with literature logP, pKa and pH, Equation (S3)
Measured logDpH 8.0 by item
Just the number, please, no unit after it.

> print(dat)
       smiles.input  observed
1  CC(C)c1ccc(N)cc1      2.23

In one line, give reported logDpH 8.0 of the entry `Nc1ccc(F)cc1` .
1.15

Identify measured logDpH 8.0 corresponding to `COc1ccc(N)cc1`
0.80
